Hello, the source for this data is patent US9598407B2, in case you need it.

# Tested on: Human HelaM cells
# assay_details: Cytotoxicity MTT assay (TOX HELAM 222.125)
# Assay type: cell-based
# assay_context: 72 hours
endpoint: TOX HELAM (222.125) CC50

O=C1CCc2cc(/C=C/C(=O)N3CCC(Cc4ccccn4)CC3)cnc2N1 ... >9.456 µg/mL
O=C1CCc2cc(/C=C/C(=O)N3CC=C(c4ccoc4)CC3)cnc2N1 ... >8.776 µg/mL
CC1CN(C(=O)/C=C/c2cnc3c(c2)CCC(=O)N3)CC=C1c1ccccc1 (centres unmarked) ... >9.381 µg/mL
O=C1CCc2cc(/C=C/C(=O)N3CCC(c4ccccc4)CC3)cnc2N1 ... >9.079 µg/mL
O=C1CCc2cc(/C=C/C(=O)N3CCC(Cc4ccccc4)CC3)cnc2N1 ... >9.431 µg/mL
O=C1CCc2cc(/C=C/C(=O)N3CCC(CC4CCCS4)CC3)cnc2N1 (centres unmarked) ... >9.684 µg/mL
O=C1CCc2cc(/C=C/C(=O)N3CC=C(c4ccco4)CC3)cnc2N1 ... >8.776 µg/mL
COc1ccccc1CC1=CCN(C(=O)/C=C/c2cnc3c(c2)CCC(=O)N3)CC1 ... >10.1352 µg/mL
COc1ccccc1C1=CCN(C(=O)/C=C/c2cnc3c(c2)CCC(=O)N3)CC1 ... >9.783 µg/mL
O=C1CCc2cc(/C=C/C(=O)N3CC=C(c4ccccc4)CC3)cnc2N1 ... >9.028 µg/mL
COc1ccncc1C1=CCN(C(=O)/C=C/c2cnc3c(c2)CCC(=O)N3)CC1 ... >9.808 µg/mL
COc1cccc(C2=CCN(C(=O)/C=C/c3cnc4c(c3)CCC(=O)N4)CC2)c1 ... >9.783 µg/mL
O=C1CCc2cc(/C=C/C(=O)N3CCC(COc4ccc(F)cc4)CC3)cnc2N1 ... >10.2852 µg/mL
O=C1CCc2cc(/C=C/C(=O)N3CCC(Cc4cccs4)CC3)cnc2N1 ... 19.12 µg/mL
O=C1CCc2cc(/C=C/C(=O)N3CCC(c4cccc(O)c4)CC3)cnc2N1 ... >9.481 µg/mL
O=C1CCc2cc(/C=C/C(=O)N3CCc4ccccc4C3)cnc2N1 ... >8.374 µg/mL
O=C1CCc2cc(/C=C/C(=O)N3CC=C(c4ccccc4Cl)CC3)cnc2N1 ... 8.04 µg/mL

* * *

# target: S. aureus ATCC 29213 FabI (Staphylococcus aureus (strain MRSA252))
# assay_details: Staphylococcus aureus FabI enzyme inhibition assay
# Type: biochemical
# assay_context: 30 minutes at room temperature, pH 6.5
Think of 0.8 µg/mL as a floor: if FabI IC50 stands on it or above, it is 1; beneath it, -1.

O=C1CCc2cc(/C=C/C(=O)N3CCC(c4ccccc4)CC3)cnc2N1 ... -1
O=C1CCc2cc(/C=C/C(=O)N3CCC(Cc4ccccn4)CC3)cnc2N1 ... -1
O=C1CCc2cc(/C=C/C(=O)N3CCCC(Oc4ccccc4)C3)cnc2N1 (centres unmarked) ... 1
COc1cccc(C2=CCN(C(=O)/C=C/c3cnc4c(c3)CCC(=O)N4)CC2)c1 ... 1
O=C1CCc2cc(/C=C/C(=O)N3CCC(Cc4nc5ccccc5s4)CC3)cnc2N1 ... 1
COc1ccc(C2=CCN(C(=O)/C=C/c3cnc4c(c3)CCC(=O)N4)CC2)cc1 ... 1
O=C1CCc2cc(/C=C/C(=O)N3CCC(CCOc4ccc(F)cc4)CC3)cnc2N1 ... 1

* * *

# target: S. aureus ATCC 29213 FabI (Staphylococcus aureus (strain MRSA252))
# assay_details: Staphylococcus aureus FabI enzyme inhibition assay
# Type: biochemical
# assay_context: 30 minutes at room temperature, pH 6.5
Parameter: FabI IC50. Scope: all listed entries.
endpoint: FabI IC50 (µg/mL)

O=C1CCc2cc(/C=C/C(=O)N3CC=C(c4ccccc4)CC3)cnc2N1 ... 0.41
O=C1CCc2cc(/C=C/C(=O)N3CCC(Cn4ccc5ccccc54)CC3)cnc2N1 ... 2.74
COc1ccccc1C1=CCCN(C(=O)/C=C/c2cnc3c(c2)CCC(=O)N3)C1 ... 0.80
O=C1CCc2cc(/C=C/C(=O)N3CC=C(c4ccc5c(c4)OCO5)CC3)cnc2N1 ... 0.53
Cc1ccc(-c2ccccc2)n1CC1CCN(C(=O)/C=C/c2cnc3c(c2)CCC(=O)N3)CC1 ... 10.18
O=C1CCc2cc(/C=C/C(=O)N3CCN(c4ccccc4)CC3)cnc2N1 ... 1.48
O=C1CCc2cc(/C=C/C(=O)N3CCN(Cc4ccccc4)CC3)cnc2N1 ... 7.17
O=C1CCc2cc(/C=C/C(=O)N3CC=C(c4cc5ccccc5o4)CC3)cnc2N1 ... 1.91
O=C1CCc2cc(/C=C/C(=O)N3CCC(COc4ccc(F)cc4)CC3)cnc2N1 ... 0.47
O=C1CCc2cc(/C=C/C(=O)N3CCC(Cc4coc5cc(F)ccc45)CC3)cnc2N1 ... 0.79
O=C1CCc2cc(/C=C/C(=O)N3CCC(Cc4ccc5ccccc5n4)CC3)cnc2N1 ... 3.39
O=C1CCc2cc(/C=C/C(=O)N3CC=C(c4ccccc4Cl)CC3)cnc2N1 ... 0.58
O=C1CCc2cc(/C=C/C(=O)N3CCC(Oc4ccccc4)CC3)cnc2N1 ... 0.93
O=C1CCc2cc(/C=C/C(=O)N3CCC(CCOc4ccccc4)CC3)cnc2N1 ... 1.00
